# Assay Name: Liver microsome metabolic stability, MLM
# Format: in vitro ADME
# Test Parameters: mouse, liver microsomes, pH 7.4; MLM (single value or second of two), 1 μM compound, 0.25 mg/mL protein; read-out: T1/2 in (mins HLM/MLM)
# Protocol: Potassium phosphate buffer (Kphos) was prepared by adding 0.647 g potassium phosphate monobasic (KH2PO4) and 3.527 g potassium phosphate dibasic ([…]) to 400 mL of Milli-Q water. pH of the buffer was adjusted to 7.4 and volume was made up to 500 mL. […] Samples were monitored for parent compounds disappearance in MRM mode using LC-MS/MS. The percent remaining of test compounds and positive control in each sample was determined by considering peak area ratio in the 0 minute sample as 100%. […]
Consider the following compounds and their measured log10 half-life at 1 µM readings.
Heads up, the numbers here are log10 of half-life at 1 µM in min units.

Asked: Requested read-out: log10 half-life at 1 µM. Entry: FC(F)(F)c1ccc2cc(-c3csc(-c4ccoc4)n3)oc2c1
Given back: 1.00

###

Entries and their inhibition at 10 µM
# Target System: BRN2 (Homo sapiens, UniProt P20265)
# Sequence (P20265 whole entry): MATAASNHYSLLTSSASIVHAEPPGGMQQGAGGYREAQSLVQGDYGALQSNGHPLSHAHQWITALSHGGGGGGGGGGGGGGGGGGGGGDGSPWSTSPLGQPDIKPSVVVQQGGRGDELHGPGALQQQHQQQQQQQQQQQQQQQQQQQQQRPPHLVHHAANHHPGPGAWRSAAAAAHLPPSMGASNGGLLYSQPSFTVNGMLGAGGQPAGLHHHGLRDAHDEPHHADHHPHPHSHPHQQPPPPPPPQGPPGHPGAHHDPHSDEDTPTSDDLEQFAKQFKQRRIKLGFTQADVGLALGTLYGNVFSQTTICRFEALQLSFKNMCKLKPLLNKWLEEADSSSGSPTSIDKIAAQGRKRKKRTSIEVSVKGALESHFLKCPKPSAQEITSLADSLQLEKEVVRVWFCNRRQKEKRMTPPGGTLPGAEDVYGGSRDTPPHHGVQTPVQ
# Assay Name: cell-based
# Test Parameters: read-out: % BRN2 Inhibition (10 μM), 10 μM compound, 24 hours, 42D^ENZR cells stably expressing BRN2-luciferase reporter; negative = activation
Reply numerically in %, unit not repeated.

c1coc(-c2nc(-c3cc4ncccc4o3)cs2)c1 [VPC-18-75] ... 71.9
Clc1ccc2cc(-c3csc(-c4ccco4)n3)oc2c1 [VPC-18-66] ... 82

Asked: // query inhibition at 10 µM value for entry O=[N+]([O-])c1ccc2nc(-c3ccc(-c4ccccc4F)o3)[nH]c2c1 [VPC-18-32]
Given back: 83.7

Asked: Here is the next compound: Cl.Clc1ccc2cc(-c3csc(C4=CCNCC4)n3)oc2c1 [VPC-18-95, hydrochloride]
Given back: 79.8

Asked: # iterate: O=[N+]([O-])c1ccc2cc(-c3csc(-c4ccc(F)cc4F)n3)oc2c1 [VPC-18-55]
Given back: -9.94

Asked: Next entry: Cn1c(-c2csc(-c3ccccc3)n2)nc2ccc(Cl)cc21 [VPC-18-37]
Given back: -14.5

Asked: Moving on to the next compound: Cn1c(-c2ccc(-c3ccccc3)o2)nc2ccc([N+](=O)[O-])cc21 [VPC-18-30]
Given back: 2.63

Asked: Would you kindly repeat that for O=[N+]([O-])c1ccc(-c2nc(-c3cc4ccc(F)cc4o3)cs2)o1 [VPC-18-54] ?
Given back: -60

Asked: Try the compound O=[N+]([O-])c1ccc2nc(-c3csc(-c4ccco4)n3)[nH]c2c1 [VPC-18-48]
Given back: -6.56

Asked: Then this compound: FC(F)(F)c1ccc2cc(-c3csc(-c4ccc[nH]4)n3)oc2c1 [VPC-18-108]
Given back: 84.4

Asked: // next record FC(F)(F)c1ccc2cc(-c3csc(N4CCCC4)n3)oc2c1 [VPC-18-72]
Given back: 45.9

Asked: Try the compound O=[N+]([O-])c1ccc2nc(-c3ccc(-c4ccc(Br)cc4Cl)o3)[nH]c2c1 [VPC-18-40]
Given back: -32.7

Asked: Proceed to Clc1ccc2cc(-c3csc(-c4ccn[nH]4)n3)oc2c1 [VPC-18-96]
Given back: 83.5

Asked: // next record FC(F)(F)c1ccc2cc(-c3csc(-c4cc[nH]c4)n3)oc2c1 [VPC-18-111]
Given back: 96.2

Asked: Entry to check: NC(=O)c1ccc2cc(-c3csc(-c4ccco4)n3)oc2c1 [VPC-18-83]
Given back: -40

Asked: Further, for O=[N+]([O-])c1ccc(-c2nc(-c3cc4ccccc4o3)cs2)cc1 [VPC-18-44] ?
Given back: -45

Asked: Param item: Cn1c(-c2ccc(-c3ccc(F)cc3F)o2)nc2ccc([N+](=O)[O-])cc21 [VPC-18-39]
Given back: -150

Asked: Now give it for O=[N+]([O-])c1ccc2cc(-c3csc(-c4ccco4)n3)oc2c1 [VPC-18-52] too.
Given back: -15.8

Asked: Then what about the compound Cn1c(-c2ccc(-c3ccccc3F)o2)nc2c(F)cccc21 [VPC-18-31] ?
Given back: 67.9

src = patent US20220106304A1
